These measurements were taken from ChEMBL document CHEMBL4382261.

molecular target: Transient receptor potential cation channel subfamily V member 4 (Homo sapiens); test: Antagonist activity at human TRPV4 channel expressed in HEK293 cells assessed as inhibition of GSK1016790A-induced calcium flux by Fluo-4-AM dye based fluorescence assay
Sequence (Q9HBA0 whole entry): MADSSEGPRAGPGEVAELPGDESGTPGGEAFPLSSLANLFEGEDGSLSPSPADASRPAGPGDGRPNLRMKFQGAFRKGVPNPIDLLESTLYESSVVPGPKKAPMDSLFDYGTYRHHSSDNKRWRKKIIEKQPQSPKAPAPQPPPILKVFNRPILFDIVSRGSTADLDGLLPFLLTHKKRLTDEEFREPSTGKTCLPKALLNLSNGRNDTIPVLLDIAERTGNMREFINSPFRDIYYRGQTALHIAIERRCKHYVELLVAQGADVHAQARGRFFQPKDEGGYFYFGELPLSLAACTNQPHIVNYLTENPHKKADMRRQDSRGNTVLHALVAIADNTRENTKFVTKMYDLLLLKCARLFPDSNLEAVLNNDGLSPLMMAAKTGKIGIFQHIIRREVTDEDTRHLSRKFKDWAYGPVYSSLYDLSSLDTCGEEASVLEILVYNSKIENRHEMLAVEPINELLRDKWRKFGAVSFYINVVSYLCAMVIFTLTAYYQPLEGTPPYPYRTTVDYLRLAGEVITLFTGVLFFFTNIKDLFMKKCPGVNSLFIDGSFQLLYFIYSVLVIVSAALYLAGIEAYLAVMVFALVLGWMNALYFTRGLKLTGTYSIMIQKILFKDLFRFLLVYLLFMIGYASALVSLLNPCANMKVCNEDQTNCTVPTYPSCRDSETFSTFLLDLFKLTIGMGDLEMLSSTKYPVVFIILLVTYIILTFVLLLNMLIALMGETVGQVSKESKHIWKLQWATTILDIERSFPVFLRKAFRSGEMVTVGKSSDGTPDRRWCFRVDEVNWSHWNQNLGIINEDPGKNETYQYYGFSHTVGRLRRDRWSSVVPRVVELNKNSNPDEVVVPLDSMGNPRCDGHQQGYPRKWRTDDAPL
pIC50: −log10 of the molar value.

# Compound smiles, Target or system, pIC50
records = [
    ("C/C=C(\\C)[C@H]1C(C)=C[C@H]2C[C@@H](C)C[C@@H](C(=O)O)[C@@H]2[C@@]1(C)C(=O)c1cccnc1", "Transient receptor potential cation channel subfamily V member 4 (Homo sapiens)", 4.34),
]

====

test system: Aspergillus fumigatus; experiment: Antifungal activity against Aspergillus fumigatus Af293 at 0.25 to 64 ug/ml after 48 hrs by microscopic method; format: functional, organism-based
Calls of active or inactive are those of the source. No cut-off for these calls is given here.
Measured metric: Activity

# Compound smiles, Target or system, Measured result
measured = [
    ("C/C=C(\\C)[C@H]1C(C)=C[C@H]2C[C@@H](C)C[C@@H](C(=O)O)[C@@H]2[C@@]1(C)C(=O)CCO", "Aspergillus fumigatus", "inactive"),
    ("C/C=C(\\C)[C@H]1C(C)=C[C@H]2C[C@@H](C)C[C@@H](C(=O)O)[C@@H]2[C@@]1(C)C(=O)c1cccnc1", "Aspergillus fumigatus", "inactive"),
    ("C/C=C(\\C)[C@H]1C(C)=C[C@H]2C[C@@H](C)C[C@H]3C(=O)/C(=C\\NCCO)C(=O)[C@]1(C)[C@H]23", "Aspergillus fumigatus", "inactive"),
    ("C/C=C(\\C)[C@H]1C(C)=C[C@H]2C[C@@H](C)C[C@H]3C(O)=C(C=O)C(=O)[C@]1(C)[C@H]23", "Aspergillus fumigatus", "inactive"),
]

====

Measured IC50, listed per entry for reference.
molecular target: Transient receptor potential cation channel subfamily M member 8 (Homo sapiens, UniProt Q7Z2W7); assay: Antagonist activity at human TRPM8 channel expressed in HEK293 cells assessed as inhibition of icilin-induced calcium flux by Fluo-4-AM dye based fluorescence assay
Sequence (Q7Z2W7 whole entry): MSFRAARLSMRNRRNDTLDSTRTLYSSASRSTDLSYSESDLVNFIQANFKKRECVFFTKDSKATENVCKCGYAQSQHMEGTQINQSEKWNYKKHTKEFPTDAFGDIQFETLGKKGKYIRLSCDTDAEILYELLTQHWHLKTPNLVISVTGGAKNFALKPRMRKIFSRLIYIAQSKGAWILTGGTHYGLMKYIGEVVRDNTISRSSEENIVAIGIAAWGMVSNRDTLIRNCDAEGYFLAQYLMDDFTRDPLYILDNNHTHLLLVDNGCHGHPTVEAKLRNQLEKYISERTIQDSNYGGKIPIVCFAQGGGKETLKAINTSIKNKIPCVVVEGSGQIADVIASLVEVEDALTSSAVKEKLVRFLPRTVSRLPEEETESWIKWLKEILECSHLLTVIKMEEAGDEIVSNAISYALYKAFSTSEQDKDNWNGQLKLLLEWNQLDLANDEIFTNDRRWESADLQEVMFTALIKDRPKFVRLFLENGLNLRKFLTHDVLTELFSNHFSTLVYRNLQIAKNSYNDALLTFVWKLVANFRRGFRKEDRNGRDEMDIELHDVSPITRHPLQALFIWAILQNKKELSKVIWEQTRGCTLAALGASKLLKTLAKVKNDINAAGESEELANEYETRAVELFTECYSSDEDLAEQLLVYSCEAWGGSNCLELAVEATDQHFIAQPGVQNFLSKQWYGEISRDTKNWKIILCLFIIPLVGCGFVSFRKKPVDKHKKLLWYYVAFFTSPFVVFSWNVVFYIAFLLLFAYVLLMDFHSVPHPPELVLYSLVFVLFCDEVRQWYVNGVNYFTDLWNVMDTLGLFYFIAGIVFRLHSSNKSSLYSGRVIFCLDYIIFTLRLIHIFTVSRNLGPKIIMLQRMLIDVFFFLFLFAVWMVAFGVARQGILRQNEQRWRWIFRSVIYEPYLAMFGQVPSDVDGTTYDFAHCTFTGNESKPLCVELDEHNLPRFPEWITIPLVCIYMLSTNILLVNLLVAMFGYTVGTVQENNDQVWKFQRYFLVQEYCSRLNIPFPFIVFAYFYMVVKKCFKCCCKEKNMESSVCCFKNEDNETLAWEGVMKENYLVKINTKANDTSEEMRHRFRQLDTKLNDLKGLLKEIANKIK
Measured metric: IC50 (µM)

# Compound smiles, Measured metric, Measured result
records = [
    ("C/C=C(\\C)[C@H]1C(C)=C[C@H]2C[C@@H](C)C[C@H]3C(=O)/C(=C\\NCCO)C(=O)[C@]1(C)[C@H]23", "IC50", 61.6),
    ("C/C=C(\\C)[C@H]1C(C)=C[C@H]2C[C@@H](C)C[C@@H](C(=O)O)[C@@H]2[C@@]1(C)C(=O)CCO", "IC50", 18.5),
]

====

target: UniProt Q8NER1; assay: Antagonist activity at human TRPV1 channel expressed in human BEAS2B cells assessed as inhibition of […] by Fluo-4-AM dye based fluorescence assay
Sequence (Q8NER1 whole entry): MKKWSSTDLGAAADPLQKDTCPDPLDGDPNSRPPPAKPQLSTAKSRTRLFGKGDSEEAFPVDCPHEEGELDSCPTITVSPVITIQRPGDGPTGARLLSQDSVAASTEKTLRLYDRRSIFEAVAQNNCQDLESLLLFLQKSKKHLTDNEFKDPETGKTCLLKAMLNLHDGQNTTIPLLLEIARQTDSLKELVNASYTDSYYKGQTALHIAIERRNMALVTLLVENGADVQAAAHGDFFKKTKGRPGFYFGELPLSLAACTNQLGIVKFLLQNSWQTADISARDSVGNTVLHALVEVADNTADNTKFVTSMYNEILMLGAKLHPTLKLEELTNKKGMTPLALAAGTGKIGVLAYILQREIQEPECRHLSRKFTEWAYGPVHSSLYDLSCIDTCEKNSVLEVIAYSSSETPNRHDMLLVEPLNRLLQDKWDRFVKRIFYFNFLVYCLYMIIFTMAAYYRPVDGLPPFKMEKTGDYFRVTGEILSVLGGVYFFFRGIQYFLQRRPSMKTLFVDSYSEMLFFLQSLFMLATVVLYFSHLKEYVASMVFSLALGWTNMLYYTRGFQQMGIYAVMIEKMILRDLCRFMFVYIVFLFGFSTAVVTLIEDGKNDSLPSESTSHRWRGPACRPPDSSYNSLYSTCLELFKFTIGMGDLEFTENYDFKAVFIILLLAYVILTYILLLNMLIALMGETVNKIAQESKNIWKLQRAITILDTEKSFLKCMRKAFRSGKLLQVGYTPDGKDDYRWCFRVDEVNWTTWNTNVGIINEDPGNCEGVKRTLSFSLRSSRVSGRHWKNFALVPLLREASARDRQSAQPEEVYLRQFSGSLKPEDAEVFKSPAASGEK
pIC50: −log10 of the molar value.
Measured metric: pIC50

# Compound smiles, Measured metric, Measured result
measured = [
    ("C/C=C(\\C)[C@H]1C(C)=C[C@H]2C[C@@H](C)C[C@@H](C(=O)O)[C@@H]2[C@@]1(C)C(=O)c1cccnc1", "pIC50", 4.09),
]
